This section presents binders with their documented kon values.
Target: T1, recombinant mouse VISTA (His-tagged) (mouse, UniProt Q9D659 33-191)
T1 construct: also called murine VISTA; mVISTA
T1 sequence (looked up): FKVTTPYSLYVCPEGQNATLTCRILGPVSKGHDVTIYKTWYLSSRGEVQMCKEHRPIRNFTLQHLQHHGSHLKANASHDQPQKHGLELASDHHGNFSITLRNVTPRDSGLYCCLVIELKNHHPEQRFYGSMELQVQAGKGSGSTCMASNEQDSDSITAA
Test: BLI (Octet), 1:1 global fit, mouse VISTA captured
Write the answer as a number in M⁻¹ s⁻¹, unit excluded.

>  <Binder>
anti-VISTA clone V4-C9 IgG1 (antibody, V domains shown) VH: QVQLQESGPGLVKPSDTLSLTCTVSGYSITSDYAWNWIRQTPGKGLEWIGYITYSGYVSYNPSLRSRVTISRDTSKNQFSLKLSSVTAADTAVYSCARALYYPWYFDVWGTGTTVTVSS VL: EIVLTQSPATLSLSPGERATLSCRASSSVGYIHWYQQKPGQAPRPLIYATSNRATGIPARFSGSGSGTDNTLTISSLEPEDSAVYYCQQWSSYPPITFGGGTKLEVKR

>  <Measured Quantity>
kon

>  <Measured Value>
361000

$$$$

Query: Query kon for anti-VISTA clone V4-C24 IgG1 (antibody, V domains shown) VH: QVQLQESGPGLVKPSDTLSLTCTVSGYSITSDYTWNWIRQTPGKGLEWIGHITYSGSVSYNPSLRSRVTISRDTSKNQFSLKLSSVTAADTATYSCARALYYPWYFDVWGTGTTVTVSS VL: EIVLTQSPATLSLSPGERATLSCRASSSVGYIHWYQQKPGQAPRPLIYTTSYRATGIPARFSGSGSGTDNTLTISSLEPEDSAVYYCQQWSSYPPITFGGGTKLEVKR
Result: 378000

Query: Consider the binder anti-VISTA clone V4-C27 IgG1 (antibody, V domains shown) VH: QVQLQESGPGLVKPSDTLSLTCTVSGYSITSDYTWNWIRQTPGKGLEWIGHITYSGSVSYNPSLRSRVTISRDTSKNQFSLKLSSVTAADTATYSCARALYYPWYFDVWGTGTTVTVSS VL: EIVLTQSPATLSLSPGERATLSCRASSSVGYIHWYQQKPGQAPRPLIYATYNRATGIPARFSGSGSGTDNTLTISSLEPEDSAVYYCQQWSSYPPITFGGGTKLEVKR and give its recorded kon.
Result: 392000

Query: Tell me measured kon for anti-VISTA clone V4-C1 IgG1 (antibody, V domains shown) VH: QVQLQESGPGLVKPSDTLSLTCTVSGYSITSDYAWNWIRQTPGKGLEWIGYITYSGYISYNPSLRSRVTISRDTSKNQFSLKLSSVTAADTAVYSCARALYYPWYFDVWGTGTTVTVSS VL: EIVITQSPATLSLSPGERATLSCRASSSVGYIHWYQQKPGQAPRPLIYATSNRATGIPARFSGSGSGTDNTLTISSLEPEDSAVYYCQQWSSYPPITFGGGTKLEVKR please.
Result: 277000
